FYI, the data here is from patent US12495798B2.

- Test system: soybean
- procedure_text: Phytotoxicity test for field crops (soil treatment test)
- Assay type: in vivo
- measurement_context: 50 g ai/ha; Soybean (10 days after treatment)
measured_attribute: Soil treatment phytotoxicity, Soybean
Output: the number by itself.

Notebook: `Cn1nnc(COCc2nc(C(F)(F)F)ccc2C(=O)Nc2nnnn2C)n1` , Soil treatment phytotoxicity, Soybean read as 2

Notebook: `COc1nc(COCc2nc(C(F)(F)F)ccc2C(=O)Nc2nnnn2C)nn1C` , Soil treatment phytotoxicity, Soybean read as 0

Notebook: `Cn1nnc(COCc2nc(C(F)(F)C(F)(F)F)ccc2C(=O)Nc2nnnn2C)n1` , Soil treatment phytotoxicity, Soybean read as 0
